Test System: T1, recombinant human TIGIT (human, UniProt Q495A1 22-141, limits assumed)
T1 construct: recombinant human TIGIT used in Carterra SPR; also called hTIGIT
T1 sequence (looked up): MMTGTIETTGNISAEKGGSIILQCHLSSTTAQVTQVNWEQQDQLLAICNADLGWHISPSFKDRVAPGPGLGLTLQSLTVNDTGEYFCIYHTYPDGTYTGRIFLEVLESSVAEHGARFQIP
Assay Details: SPR Carterra, average
Result Type: kon (M⁻¹ s⁻¹)
Your answer is read as M⁻¹ s⁻¹, so omit the unit and give the number.

TIGIT-SC189 (Fc fusion, VHH-Fc fusion in assay) VHH: EVQLVESGGGLVQPGGSLRLSCAASGNTFSGGFMGWFRQAPGKEREWVASVLRGGYTWYADSVKGRFTISADNSKNTAYLQMNSLKPEDTAVYYCVTDVGAPDYWGQGTLVTVSS = 8880
TIGIT-SC187 (Fc fusion, VHH-Fc fusion in assay) VHH: EVQLVESGGGLVQPGGSLRLSCAASGFTFSPSWMGWFRQAPGKEREWVASVLRGGYTWYADSVKGRFTISADNSKNTAYLQMNSLKPEDTAVYYCTTDSLPGWGQGTLVTVSS = 34000
TIGIT-SC19 (Fc fusion, VHH-Fc fusion in assay) VHH: EVQLVESGGGLVQPGGSLRLSCAASGRTYDAMGWFRQAPGKEREWVASVLRGGYTWYADSVKGRFTISADNSKNTAYLQMNSLKPEDTAVYYCARDVDYRFDSWGQGTLVTVSS = 1.12e+06
TIGIT-SC95 (Fc fusion, VHH-Fc fusion in assay) VHH: EVQLVESGGGLVQPGGSLRLSCAASGPTFSTNVMGWFRQAPGKEREFVSSIHWGGSSTVYADSVKGRFTISADNSKNTAYLQMNSLKPEDTAVYYCVTYSAYDFRNAWGQGTLVTVSS = 1.38e+06
TIGIT-SC65 (Fc fusion, VHH-Fc fusion in assay) VHH: EVQLVESGGGLVQPGGSLRLSCAASGFTFGNYDMGWFRQAPGKEREFVAAITGSGRSTYYADSVKGRFTISADNSKNTAYLQMNSLKPEDTAVYYCARGRIAASGTKVYWYFDLWGQGTLVTVSS = 1.09e+06
TIGIT-SC56 (Fc fusion, VHH-Fc fusion in assay) VHH: EVQLVESGGGLVQPGGSLRLSCAASGNTFSGGFMGWFRQAPGKEREWVASVLRGGYTWYADSVKGRFTISADNSKNTAYLQMNSLKPEDTAVYYCAHSKGYNWFDPWGQGTLVTVSS = 29800
TIGIT-SC72 (Fc fusion, VHH-Fc fusion in assay) VHH: EVQLVESGGGLVQPGGSLRLSCAASGGLTFSSYAMGWFRQAPGKEREFVAAISWSGGRTYYADSVKGRFTISADNSKNTAYLQMNSLKPEDTAVYYCARWSAKRHSDTMTYYMDVWGQGTLVTVSS = 34900

Here's the next entry for you.
Specify reported kon for the binder shown: TIGIT-SC78 (Fc fusion, VHH-Fc fusion in assay) VHH: EVQLVESGGGLVQPGGSLRLSCAASGLTLNDYAMGWFRQAPGKERELVAWIARYDGSTLYADSVKGRFTISADNSKNTAYLQMNSLKPEDTAVYYCARVDWALNAAPFDYWGQGTLVTVSS
244000
